Hey, just so you know, these numbers are from patent US10059701B2.

Target System: IRAK1 (Homo sapiens)
Construct: His-TEV-IRAK1 (194-712); His (N); TEV cleavage site (N)
Sequence (P51617 194-712): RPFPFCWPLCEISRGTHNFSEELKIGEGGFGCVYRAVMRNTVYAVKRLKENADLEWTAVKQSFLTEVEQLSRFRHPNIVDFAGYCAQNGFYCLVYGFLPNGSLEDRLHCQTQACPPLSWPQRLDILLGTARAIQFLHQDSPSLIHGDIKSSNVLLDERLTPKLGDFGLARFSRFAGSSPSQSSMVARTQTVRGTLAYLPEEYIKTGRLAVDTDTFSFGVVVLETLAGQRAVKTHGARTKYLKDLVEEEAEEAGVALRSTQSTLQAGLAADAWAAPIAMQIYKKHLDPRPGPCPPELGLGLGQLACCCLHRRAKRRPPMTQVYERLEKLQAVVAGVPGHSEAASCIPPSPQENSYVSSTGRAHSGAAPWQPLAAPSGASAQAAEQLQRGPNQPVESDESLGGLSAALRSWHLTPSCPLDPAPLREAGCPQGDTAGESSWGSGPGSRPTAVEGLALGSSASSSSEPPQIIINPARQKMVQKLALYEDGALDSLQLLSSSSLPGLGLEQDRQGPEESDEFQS
Procedure Text: IRAK1 enzymatic assay (ADP-Glo luminescence)
Condition: purified human recombinant His-TEV-IRAK1 (194-712)
pIC50: −log10 of the molar value.
pIC50: recorded values

Challenge: Given the molecule `O=C(/N=c1\[nH]c2cc(N3CCOCC3=O)c(OC(F)F)cc2n1CCCO)c1cccc(C(F)(F)F)c1` , what is its reported pIC50?
Response given: ≥ 7.00

Challenge: What about `O=C(/N=c1\[nH]c2cc(N3CCOCC3=O)ccc2n1CCCO)c1cccc(C(=O)N2CCOCC2)c1` ?
Response given: 6.00 to 7.00

Challenge: What about `O=C(/N=c1\[nH]c2cc(N3CCOCC3=O)ccc2n1[C@H]1CC[C@H](O)CC1)c1cccc(C(F)(F)F)c1` ?
Response given: 6.00 to 7.00

More entries:
Challenge: Given the molecule `O=C(/N=c1\[nH]c2cc(N3CCCOC3=O)ccc2n1CCCO)c1cccc(C(F)F)c1` , what is its reported pIC50?
Response given: ≥ 7.00

Challenge: What about `O=C(/N=c1\[nH]c2cc(N3CCOCC3=O)ccc2n1CCCO)c1cccc(OC(F)(F)F)c1` ?
Response given: 6.00 to 7.00

Challenge: What about `O=C(/N=c1\[nH]c2cc(N3CCOCC3=O)ccc2n1CCCO)c1cccc(-c2ccn(C(F)F)c(=O)c2)c1` ?
Response given: 6.00 to 7.00

Challenge: What about `O=C(/N=c1\[nH]c2cc(N3CCOCC3=O)ccc2n1CCCO)c1cccc(C(F)F)c1` ?
Response given: ≥ 7.00

---

Target System: IRAK1 (Homo sapiens)
Construct: His-TEV-IRAK1 (194-712); His (N); TEV cleavage site (N)
Procedure Text: IRAK1 enzymatic assay (ADP-Glo luminescence)
Condition: purified human recombinant His-TEV-IRAK1 (194-712)
IC50: recorded values

Challenge: Test system IRAK1 (Homo sapiens); read-out IC50; what value for `CC(=O)N1CCC(n2/c(=N/C(=O)c3cccc(C(F)F)c3)[nH]c3cc(N4CCOCC4=O)ccc32)CC1` ?
Response given: 0.1 to 1 µM

Challenge: What about C[S+]([O-])CCCn1/c(=N/C(=O)c2cccc(C(F)F)c2)[nH]c2cc(N3CCOCC3=O)ccc21 (stereo not shown) ?
Response given: 0.1 to 1 µM

More entries:
Challenge: Test system IRAK1 (Homo sapiens); read-out IC50; what value for `NC(=O)[C@H]1CC[C@@H](n2/c(=N/C(=O)c3cccc(C(F)(F)F)c3)[nH]c3cc(N4CCOCC4=O)ccc32)CC1` ?
Response given: 0.1 to 1 µM

Challenge: What about `O=C(/N=c1\[nH]c2cc(N3CCOCC3=O)ccc2n1C1CCCCC1)c1cccc(C(F)(F)F)c1` ?
Response given: > 1 µM

Challenge: What about `COc1cc2c(cc1N1CCOCC1=O)[nH]/c(=N\C(=O)c1cc(F)cc(C(F)(F)F)c1)n2CCCO` ?
Response given: ≤ 0.1 µM

Challenge: What about `Cn1cnc2cc(C(=O)/N=c3\[nH]c4cc(N5CCOCC5=O)ccc4n3CCCO)ccc21` ?
Response given: > 1 µM

Challenge: What about `N#Cc1cccc(C(=O)/N=c2\[nH]c3cc(N4CCOCC4=O)ccc3n2CCCO)c1` ?
Response given: 0.1 to 1 µM
